Biological target: T1, mouse IL-17A (mouse, UniProt Q62386 26-158, limits assumed)
T1 construct: In SPR it was injected in solution, and no biotinylation is mentioned there; also called mIL-17A; mIL17A
T1 sequence (looked up): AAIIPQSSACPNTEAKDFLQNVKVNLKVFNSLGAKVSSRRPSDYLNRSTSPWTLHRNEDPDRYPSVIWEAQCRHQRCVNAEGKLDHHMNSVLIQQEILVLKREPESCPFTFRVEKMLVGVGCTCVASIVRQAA
Test: SPR (ProteOn XPR-36), clone amine-coupled on chip, mIL-17A in solution, 1:1 Langmuir fit
Task for the reader: assign each of the following binders its reported Kd.
Response body: numeric value in pM, unit text excluded.

Report Kd for TP1KR9P62-C6 (designed binder, also called TCL14-His fusion protein) MLPAPKNLVVSRVTEDSARLSWTAPDAAFDSFAIEYFEDWWSGEAIVLTVPGSERSCDLTGLKPGTEYSVTIRGVKGGYPSSPLSAIFTT please. 21.2

Report Kd for TP1KR9P62-D3 (designed binder, also called TCL14-His fusion protein) MLPAPKNLVVSRVTEDSARLSWTAPDAAFDSFAIEYFEDWWSGEAIVLTVPGSERSYDLTLKPGTEYSVSIRGVKGGYPSSPLSAIFTT please. 554

Report Kd for TP1KR9P61-A7 (designed binder, also called TCL14-His fusion protein) MLPAPKNLVVSRVTEDSARLSWTAPDAAFDSFAIEYFEDWWSGEAIVLTVPGSERSYDLTGLKPGTEYSVSIRGVKGGYPSSPLSAIFTT please. 421
